Source listed as patent US20260207563A1.

Target: heteromeric KV7.2/KV7.3 channels (KCNQ2, KCNQ3) (Homo sapiens, UniProt O43525+O43526)
Test: Automated patch-clamp (Sophion Qube 384) potency assay against KV7.2/KV7.3 channels
Conditions: CHO-K1/Kv7.2/Kv7.3 cells; EC50 from concentration-response of shift in Vhalf, 10 concentrations up to 30 μM; read-out: Kv7.2/7.3 EC50
property.label: EC50 (µM)

>>> data_value("O=C(NCc1ccnc(OCC(F)(F)F)c1)N[C@@H]1CCCc2ccccc21 [Compound 156]")
1.85
>>> data_value("O=C(NCCC1(C(F)(F)F)CC1)NCc1ccnc(OCC(F)(F)F)c1F [Compound 90]")
0.237
>>> data_value("CC1(C)C[C@H](NC(=O)NCc2ccnc(OCC(F)(F)F)c2)c2ccccc2O1 [Compound 200]")
2.51
>>> data_value("O=C(NCCC1(C(F)(F)F)CC1)NCc1ccnc(N2CC(C(F)(F)F)C2)c1 [Compound 44]")
6.3
>>> data_value("COc1ccc2c(c1)CCC[C@@H]2NC(=O)NCc1ccnc(OCC(F)(F)F)c1 [Compound 178]")
8.11
>>> data_value("O=C(NCc1ccnc(OCC(F)(F)F)c1)NCC1CCC(F)(F)CC1 [Compound 70]")
0.975
>>> data_value("C[C@@H](NC(=O)NCc1ccnc(OCC(F)(F)F)c1)c1ccc2c(c1)OC(F)(F)O2 [Compound 226]")
1.83
>>> data_value("O=C(NCc1ccnc(OCC(F)(F)F)c1)N[C@@H]1CCO[C@H](c2ccc(F)cc2)C1 [Compound 245]")
2.19

(P) O=C(NCCC1(C(F)(F)F)CC1)NCc1ccnc(NCC(F)(F)F)c1 [Compound 16]
(Q) O=C(NCc1ccnc(C(F)(F)F)c1)N[C@@H]1CCc2ccc(F)cc21 [Compound 92]
Pick one, P or Q : lowest reported EC50. Your choice should be expressed through its label.
Q

---

Target: heteromeric KV7.2/KV7.3 channels (KCNQ2, KCNQ3) (Homo sapiens, UniProt O43525+O43526)
Assay: Automated patch-clamp (Sophion Qube 384) potency assay against KV7.2/KV7.3 channels
Conditions: CHO-K1/Kv7.2/Kv7.3 cells; EC50 from concentration-response of shift in Vhalf, 10 concentrations up to 30 μM; read-out: Kv7.2/7.3 EC50
pEC50: −log10 of the molar value.
property.label: pEC50

(P) O=C(NCCC1(C(F)(F)F)CC1)NCc1cc(OCc2ccc(F)cc2)nc(N2CCOCC2)c1
(Q) O=C(NCc1ccnc(OCC(F)(F)F)c1)N[C@@H]1CCCOc2ccccc21
Endpoint returns whichever of P and Q has the numerically higher pEC50. Your choice should be expressed through its label.
Q

(I) O=C(NCc1ccnc(OCC(F)(F)F)c1)NCc1ccccc1Cl
(II) C[C@H](NC(=O)NCCC1(C(F)(F)F)CC1)c1ccnc(OCC(F)(F)F)c1
Endpoint returns whichever of I and II has the numerically higher pEC50. Your choice should be expressed through its label.
I
(I: 6.29, II: 5.30)

(1) O=C(NCCC1(C(F)(F)F)CC1)NCc1ccnc(OCC(F)F)c1
(2) N#Cc1cccc2c1CC[C@@H]2NC(=O)NCc1ccnc(OCC(F)(F)F)c1
Pick one, 1 or 2 : lowest reported pEC50. Your choice should be expressed through its label.
2

(P) O=C(NCc1ccnc(OCC(F)(F)F)c1)N[C@H]1CCc2ccc(C(F)(F)F)cc21
(Q) O=C(NCc1ccnc(OCC(F)(F)F)c1)N[C@H]1c2ccccc2C[C@H]1O
Endpoint returns whichever of P and Q has the numerically higher pEC50. Your choice should be expressed through its label.
P
(P: 5.97, Q: 5.02)

(P) O=C(NCc1ccnc(OCC(F)(F)F)c1)N[C@@H]1CCc2ccc(F)cc21
(Q) Cc1cccc2c1[C@H](NC(=O)NCc1ccnc(OCC(F)(F)F)c1)CC2
Endpoint returns whichever of P and Q has the numerically higher pEC50. Your choice should be expressed through its label.
P

(I) Cn1ncc(C(F)(F)F)c1COc1cc(CNC(=O)NCCC2(C(F)(F)F)CC2)ccn1
(II) O=C(NCc1ccnc(OCC(F)(F)F)c1)NCC1CCCC(F)(F)C1 (centres unmarked)
Pick one, I or II : lowest reported pEC50. Your choice should be expressed through its label.
I
(I: 5.75, II: 6.06)

(A) O=C(NCCC1(C(F)(F)F)CC1)NCc1cc(OCC(F)(F)F)ncc1F
(B) Cc1ccc2c(c1)CCC2NC(=O)NCc1ccnc(OCC(F)(F)F)c1 (centres unmarked)
Pick one, A or B : lowest reported pEC50. Your choice should be expressed through its label.
A
